Please respond with reported protein stability index for every item in the list.
B1: LOC100129726 (parent)
chain: VHTGCHKKLGPEARRPRTRWGKN

- Variants of: B1
- test_summary: protein stability index of a GFP-peptide fusion (GPS, HEK-293T) (PSI 1-6); higher = more stable;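 also: lentivirally expressed fusions sorted by FACS into six bins by GFP to DsRed ratio, PSI derived from sequencing read proportions per bin multiplied by bin number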
- settings: c terminus: native
Give bare numbers.

Example results:
R17K :: 1.36
R15F :: 3.27

Answer for every listed entry: what is its protein stability index? The entries follow.
1. T18N
2. A13R
3. W20N
4. G4N
5. W20F

Output:
[1.74, 1.64, 4.45, 1.01, 2.87]
